B1: LINE1-mini (parent)
chain: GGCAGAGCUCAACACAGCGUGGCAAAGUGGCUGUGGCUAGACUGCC

variants of: B1; test: self-cleavage, relative activity (ratio to wild type); higher = more cleavage; in vitro, sequencing; the parent is a self-cleaving ribozyme
Measured self-cleavage, listed per entry.
Keep it simple and answer with nothing but the number.

sequence="GGCAGUGCUCAACACAGCGUGGCAAGGUGGCUGUGGCUAGACUGCC [A6U A26G]" experimental_value=0.31
sequence="GGCAGGGCUCAACACAGCGUGGCAAAGUUGCUGUGGCUAGACUGCC [A6G G29U]" experimental_value=0.09
sequence="GGCAGAGCUCAACACAGCGUCGCAAAGUUGCUGUGGCUAGACUGCC [G21C G29U]" experimental_value=0.48
sequence="GGCAGAGCACAACACAGGGUGGCAAAGUGGCUGUGGCUAGACUGCC [U9A C18G]" experimental_value=0.09

The reported value for GGCCGAGCUAAACACAGCGUGGCAAAGUGGCUGUGGCUAGACUGCC [A4C C10A] in terms of self-cleavage is 0.04
